test: The drug is tested on WLS-240 corresponding to human gut metagenome with ENA study accession number: PRJEB37062 and ENA sample accession number: ERS12561773 for biotransformation under anaerobic condition. The drug concentrations were measured over 9 timepoints collected between 0 and 24 hours of incubation by liquid-chromatography-coupled mass spectrometry (LC–MS); conditions: 2 µM; further: call rule not given here
REPORTED_METRIC: Bacterial Biotransformation

| COMPOUND | Bacterial Biotransformation |
| --- | --- |
| C=C[C@H]1CN2CC[C@H]1C[C@H]2[C@H](O)c1ccnc2ccc(OC)cc12.C=C[C@H]1CN2CC[C@H]1C[C@H]2[C@H](O)c1ccnc2ccc(OC)cc12.O.O.O=S(=O)(O)O [QUININE SULFATE] | Compound metabolized |
| Nc1nnc(-c2cccc(Cl)c2Cl)c(N)n1 | Compound metabolized |
| CN1CCC[C@@H]1CCO[C@](C)(c1ccccc1)c1ccc(Cl)cc1.O=C(O)/C=C/C(=O)O [CLEMASTINE FUMARATE] | Compound NOT metabolized |
| COCCCC/C(=N\OCCN)c1ccc(C(F)(F)F)cc1.O=C(O)/C=C\C(=O)O [FLUVOXAMINE MALEATE] | Compound NOT metabolized |
| COc1cc2nc(N3CCN(C(=O)C4CCCO4)CC3)nc(N)c2cc1OC (stereo unspecified) | Compound metabolized |

Bacterial Biotransformation lookup needed for COc1cc2nc(N3CCN(C(=O)C4COc5ccccc5O4)CC3)nc(N)c2cc1OC.CS(=O)(=O)O (stereo unspecified) [DOXAZOSIN MESYLATE] , thanks.
Compound metabolized

What value of Bacterial Biotransformation has been reported for the following compound? O=P1(N(CCCl)CCCl)NCCCO1 (stereo unspecified) [CYCLOPHOSPHAMIDE ANHYDROUS]
Compound metabolized

Which value of Bacterial Biotransformation has been reported for COC(=O)C(c1ccccc1)C1CCCCN1 (stereo unspecified) [METHYLPHENIDATE] in the records?
Compound metabolized

# lookup: Bacterial Biotransformation of O=C(O)CCC(=O)O.O=C(O[C@H]1CN2CCC1CC2)N1CCc2ccccc2[C@@H]1c1ccccc1 [SOLIFENACIN SUCCINATE]
Compound metabolized

Using the record for O=C(CCCN1CCC2(CC1)C(=O)NCN2c1ccccc1)c1ccc(F)cc1 , report its Bacterial Biotransformation.
Compound NOT metabolized
